src = patent US20230125052A1

- Tested on: fibrinogen mediated platelet aggregation in platelet-rich plasma (active αIIbβ3)
- Type: cell-based, sheep
Experimental endpoint: pIC50
Reminder that pIC50 is minus the log10 of a molar concentration.

*Q* Return reported pIC50. Input compound: `CC(C)[C@@H]1NC(=O)[C@@H](Cc2ccccc2)NC(=O)[C@H](CC(=O)O)NC(=O)CNC(=O)[C@H](CCCNC(=N)N)NC1=O`
*A* 3.34
